Test system: PC-3
Assay: Cytotoxicity against human PC3 cells after 72 hrs by MTT assay
Format: functional, cell-based
Details: PC-3, 72 h
MEASUREMENT KIND: IC50 (µM)
Unit µM implied. Number only.

| SMILES ENTRY | IC50 / µM |
| --- | --- |
| C=C(C)[C@@H]1CC[C@]2(COC(=O)CCC(=O)N3CCCC3)CC[C@]3(C)[C@H](CC[C@@H]4[C@@]5(C)CC[C@H](O)C(C)(C)[C@@H]5CC[C@]43C)[C@@H]12 | 8.3 |

Field: next compound
**Q:** Item C=C(C)[C@@H]1CC[C@]2(COC(=O)CCC(=O)N3CCOCC3)CC[C@]3(C)[C@H](CC[C@@H]4[C@@]5(C)CC[C@H](O)C(C)(C)[C@@H]5CC[C@]43C)[C@@H]12 has what recorded IC50?
**A:** 11.2
